B1: MEF2-activating motif and SAP domain-containing transcriptional regulator, residues 170 to 204; numbered along this chain, Q6ZN01 (parent)
chain: LKLEELTVSELRQQLRLRGLPVSGTKSMLLERMRG

# Variants of: B1
# protocolText: abundance fitness (aPCA) (normalised: wild type 0, dead -1); higher = more abundant; growth selection in yeast, the domain comes from the species named
# testParameters: Homo sapiens
Mark Yes for reported abundance fitness of -0.2 or greater; mark No for anything smaller.

Reported abundance fitness reaches at least -0.2 for `L1Y` ?
Yes

Does `L17S` have a reported abundance fitness of at least -0.2?
No

Does the variant `E31P` have recorded abundance fitness that is -0.2 or more?
No

Does `R34C` have a reported abundance fitness of at least -0.2?
Yes

Entry `L29K` : is its abundance fitness no less than -0.2?
No

// inclusive: abundance fitness at least -0.2? input: `S27H`
No

Reported abundance fitness at or above -0.2? `K2N`
Yes

Item `Q14V` with abundance fitness of -0.2 or above?
No

abundance fitness >= -0.2 for `E10D` ?
No

Decide: is the reported value of abundance fitness for `M28C` equal to or greater than -0.2?
No

Determine whether this variant has abundance fitness no lower than -0.2: `L30K`
No

State whether the measured abundance fitness reaches -0.2, counting equality as reaching it, for `T25C`
No
